Reported pIC50 is given for each of the following compounds.
target: endogenous cellular BACE2 (Rattus norvegicus, UniProt Q6IE75)
Construct: endogenous cellular BACE2 in the Ins1e rat cell line; endogenous in cells
Sequence (Q6IE75 63-514): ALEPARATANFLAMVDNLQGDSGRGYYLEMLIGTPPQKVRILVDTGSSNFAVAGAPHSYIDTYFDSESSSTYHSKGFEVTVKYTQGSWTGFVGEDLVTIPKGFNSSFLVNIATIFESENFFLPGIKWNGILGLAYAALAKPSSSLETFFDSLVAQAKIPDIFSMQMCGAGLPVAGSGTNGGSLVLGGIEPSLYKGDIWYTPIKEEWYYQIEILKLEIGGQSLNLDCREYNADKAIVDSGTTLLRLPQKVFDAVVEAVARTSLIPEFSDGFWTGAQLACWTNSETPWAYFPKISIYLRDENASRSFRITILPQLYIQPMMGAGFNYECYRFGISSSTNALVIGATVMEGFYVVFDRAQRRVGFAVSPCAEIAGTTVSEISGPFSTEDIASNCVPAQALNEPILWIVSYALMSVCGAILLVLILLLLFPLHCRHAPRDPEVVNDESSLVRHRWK
protocol description: Assay for BACE inhibition by measuring cellular TMEM27 cleavage
run conditions: INS-TMEM27 (INS1e-derived) cells, shed human TMEM27 in supernatant by ELISA
Where a name gives a salt, the structure may show the parent alone.
In textbook form, pIC50 equals minus log to base ten of the concentration in mol/L.

Example compounds with recorded pIC50:
[
  {
    "compound": "CCOCc1ccc(C(=O)Nc2ccc(F)c([C@@]3(C)N=C(N)COCC3(F)F)c2)nc1 [Example 57, formate]",
    "pIC50": 6.55
  },
  {
    "compound": "Cn1ccc(C(=O)Nc2ccc(F)c([C@@]3(C)N=C(N)COCC3(F)F)c2)n1 [Example 43, formate]",
    "pIC50": 8.33
  }
]

Value of pIC50 reported for the compound C[C@]1(c2cc(NC(=O)c3cnc(OCF)cn3)ccc2F)N=C(N)COCC1(F)F [Example 103, formate] is 6.51

Value of pIC50 reported for the compound `CC[C@]1(c2cc(NC(=O)c3ncoc3C)ccc2F)N=C(N)COCC1(F)F` is 6.87

Value of pIC50 reported for the compound C[C@]1(c2cc(NC(=O)c3ncc(C(F)(F)F)cc3F)ccc2F)N=C(N)COCC1(F)F [Example 88, formate] is 6.45

Value of pIC50 reported for the compound C[C@]1(c2cc(NC(=O)c3ncc(F)cc3Cl)ccc2F)N=C(N)COCC1(F)F [Example 40, formate] is 8.21

Value of pIC50 reported for the compound C[C@]1(c2cc(NC(=O)c3ncccc3Cl)ccc2F)N=C(N)COCC1(F)F [Example 36, formate] is 8.08

Value of pIC50 reported for the compound C[C@]1(c2cc(NC(=O)c3ccc(OCF)cn3)ccc2F)N=C(N)COCC1(F)F [Example 70, formate] is 6.77

Value of pIC50 reported for the compound `C[C@]1(c2cc(NC(=O)c3ccc(C#N)cn3)ccc2F)N=C(N)COC[C@@H]1F` is 7.04

Value of pIC50 reported for the compound `CC[C@]1(c2cc(NC(=O)c3nn(C)cc3Cl)ccc2F)N=C(N)COCC1(F)F` is 7.53

Value of pIC50 reported for the compound C[C@]1(c2cc(NC(=O)c3cnc(OCCF)cn3)ccc2F)N=C(N)COCC1(F)F [Example 71, formate] is 4.91

Value of pIC50 reported for the compound C[C@]1(c2cc(NC(=O)C3(C(F)(F)F)CC3)ccc2F)N=C(N)COCC1(F)F [Example 33, formate] is 6.62

----------
Reported log10 IC50 is given for each of the following molecules.
Tested on: Aβ40
protocol description: Cellular Aβ-lowering assay
Type: cell-based
run conditions: HEK293 cells stably expressing human APP695, Aβ40 in supernatant by ELISA after 18-20 hrs; read-out: Cellular assay Abeta40 IC50
Where a name gives a salt, the structure may show the parent alone.
On a log10 scale: recorded IC50, unit nM.

Example molecules with recorded log10 IC50:
[
  {
    "molecule": "CCOC(=O)c1ccc(C(=O)Nc2ccc(F)c([C@@]3(C)N=C(N)COCC3(F)F)c2)nc1 [Example 58, formate formate]",
    "log10 IC50": 2.08
  },
  {
    "molecule": "C[C@@]1(c2cc(NC(=O)c3ccccn3)ccc2F)CCOCC(N)=N1",
    "log10 IC50": 1.20
  },
  {
    "molecule": "C[C@]1(c2cc(NC3CCCC3)ccc2F)N=C(N)COC[C@@H]1F",
    "log10 IC50": 1.68
  },
  {
    "molecule": "C[C@]1(c2cc(NC(=O)c3cc(Cl)c(Cl)s3)ccc2F)N=C(N)COCC1(F)F [Example 72, formate]",
    "log10 IC50": 2.77
  },
  {
    "molecule": "CCc1ocnc1C(=O)Nc1ccc(F)c([C@@]2(C)N=C(N)COCC2(F)F)c1",
    "log10 IC50": 2.11
  }
]

Continue with the next molecule.
Value of log10 IC50 reported for the molecule `C[C@@]1(c2cc(NC(=O)c3ccc(C#N)cn3)ccc2F)COCCC(N)=N1` is 1.00

----------
Test system: Aβ40
protocol description: Cellular Aβ-lowering assay
Type: cell-based
run conditions: HEK293 cells stably expressing human APP695, Aβ40 in supernatant by ELISA after 18-20 hrs; read-out: Cellular assay Abeta40 IC50
Structures can show the parent of a compound that is named as a salt.
Reported pIC50 is given for each of the following molecules.
In textbook form, pIC50 equals minus log to base ten of the concentration in mol/L.

Item CC[C@@]1(c2cc(NC(=O)c3ccc(Cl)cn3)ccc2F)CCOCC(N)=N1 [Example 14] ; assay system Aβ40; pIC50 reported as 7.03

Item C[C@]1(c2cc(NC(=O)C3(C(F)(F)F)CC3)ccc2F)N=C(N)COCC1(F)F [Example 33, formate] ; assay system Aβ40; pIC50 reported as 7.05

Item CC1(C)OCC[C@@](C)(c2cc(NC(=O)c3ccc(F)cn3)ccc2F)N=C1N [Example 50] ; assay system Aβ40; pIC50 reported as 6.80

Item COC(C)C(=O)Nc1ccc(F)c([C@@]2(C)N=C(N)COCC2(F)F)c1 (stereo partly shown) [Example 55, formate] ; assay system Aβ40; pIC50 reported as 6.85

----------
target: endogenous cellular BACE2 (Rattus norvegicus)
Construct: endogenous cellular BACE2 in the Ins1e rat cell line; endogenous in cells
protocol description: Assay for BACE inhibition by measuring cellular TMEM27 cleavage
run conditions: INS-TMEM27 (INS1e-derived) cells, shed human TMEM27 in supernatant by ELISA
Reported IC50 is given for each of the following molecules.
The reply should contain only the number, in nM.

Example molecules with recorded IC50:
[
  {
    "item smiles": "CC[C@]1(c2cc(NC(=O)c3cccnn3)ccc2F)N=C(N)COCC1(F)F",
    "display unit": "nM",
    "IC50": 421000
  },
  {
    "item smiles": "CC1(C)OCC[C@@](C)(c2cc(NC(=O)c3ccc(F)cn3)ccc2F)N=C1N",
    "display unit": "nM",
    "IC50": 71
  },
  {
    "item smiles": "CC[C@]1(c2cc(NC(=O)c3ncc(F)cc3C)ccc2F)N=C(N)COCC1(F)F",
    "display unit": "nM",
    "IC50": 2200
  }
]

Value of IC50 reported for the molecule `C[C@]1(c2cc(NC(=O)c3ccc(F)cn3)ccc2F)N=C(N)COC[C@@H]1F` is 1

Value of IC50 reported for the molecule `CC1(C)OCC(N)=N[C@](C)(c2cc(NC(=O)c3ccc(C#N)cn3)c(F)cc2F)C1(F)F` is 30000

Value of IC50 reported for the molecule `CC[C@]1(c2cc(NC(=O)c3ncc(F)cc3Cl)ccc2F)N=C(N)COCC1(F)F` is 60.2

Value of IC50 reported for the molecule `C[C@]1(c2cc(NC(=O)c3nn(CC(F)(F)F)cc3Cl)ccc2F)N=C(N)COCC1(F)F` is 2170

Value of IC50 reported for the molecule `CCc1n[nH]c(C(=O)Nc2ccc(F)c([C@@]3(C)N=C(N)COCC3(F)F)c2)c1C` is 886
